target: T1, human TGFβ1 (human, UniProt P01137 279-390); assay: Biacore off-rate vs wt GC1008, 50 nM
T1 construct: also called TGFβ1 homodimer
T1 sequence (P01137 279-390 limits assumed): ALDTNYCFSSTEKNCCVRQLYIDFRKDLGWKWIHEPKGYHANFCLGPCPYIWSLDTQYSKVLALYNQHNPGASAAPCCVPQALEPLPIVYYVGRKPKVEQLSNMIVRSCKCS
# kd var/kd wt listing for each entry below
Simply state the number, no unit and no words.

These solved cases illustrate the format of a correct answer.
E74Q (antibody, V domains shown, GC1008 IgG4 variant) VH: QVQLVQSGAEVKKPGSSVKVSCKASGYTFSSNVISWVRQAPGQGLEWMGGVIPIVDIANYAQRFKGRVTITADQSTSTTYMELSSLRSEDTAVYYCASTLGLVLDAMDYWGQGTLVTVSS VL: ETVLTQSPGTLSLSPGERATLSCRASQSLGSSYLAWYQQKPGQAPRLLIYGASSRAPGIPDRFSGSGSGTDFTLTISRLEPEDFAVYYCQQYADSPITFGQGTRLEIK | 1.2
E74D (antibody, V domains shown, GC1008 IgG4 variant) VH: QVQLVQSGAEVKKPGSSVKVSCKASGYTFSSNVISWVRQAPGQGLEWMGGVIPIVDIANYAQRFKGRVTITADDSTSTTYMELSSLRSEDTAVYYCASTLGLVLDAMDYWGQGTLVTVSS VL: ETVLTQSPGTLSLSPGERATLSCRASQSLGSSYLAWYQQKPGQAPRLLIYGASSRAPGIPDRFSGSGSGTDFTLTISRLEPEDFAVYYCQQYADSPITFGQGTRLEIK | 0.9
S31R (antibody, V domains shown, GC1008 IgG4 variant) VH: QVQLVQSGAEVKKPGSSVKVSCKASGYTFSRNVISWVRQAPGQGLEWMGGVIPIVDIANYAQRFKGRVTITADESTSTTYMELSSLRSEDTAVYYCASTLGLVLDAMDYWGQGTLVTVSS VL: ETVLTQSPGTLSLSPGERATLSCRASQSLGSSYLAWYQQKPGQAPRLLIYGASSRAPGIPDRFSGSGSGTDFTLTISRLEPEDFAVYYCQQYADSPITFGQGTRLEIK | 1.4
Y27G (antibody, V domains shown, GC1008 IgG4 variant) VH: QVQLVQSGAEVKKPGSSVKVSCKASGGTFSSNVISWVRQAPGQGLEWMGGVIPIVDIANYAQRFKGRVTITADESTSTTYMELSSLRSEDTAVYYCASTLGLVLDAMDYWGQGTLVTVSS VL: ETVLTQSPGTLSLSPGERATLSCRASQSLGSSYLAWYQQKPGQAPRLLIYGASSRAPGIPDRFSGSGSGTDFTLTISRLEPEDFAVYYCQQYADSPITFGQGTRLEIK | 1.5

// next item, kd var/kd wt requested
(Q) Reported kd var/kd wt, binder S30M (antibody, V domains shown, GC1008 IgG4 variant) VH: QVQLVQSGAEVKKPGSSVKVSCKASGYTFMSNVISWVRQAPGQGLEWMGGVIPIVDIANYAQRFKGRVTITADESTSTTYMELSSLRSEDTAVYYCASTLGLVLDAMDYWGQGTLVTVSS VL: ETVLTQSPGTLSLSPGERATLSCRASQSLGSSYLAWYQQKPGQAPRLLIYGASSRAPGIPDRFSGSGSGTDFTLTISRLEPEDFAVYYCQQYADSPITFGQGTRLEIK : ____
(A) 0.7
